Origin of measurements: PubChem BioAssay AID2060882

System: 898857-211-R-J1-PDC complex spheroids, growth % test/control
assay.comment: Anticancer human tumor 898857-211-R-J1-PDC patient-derived melanoma cell line growth inhibition [RAS]
experimental.context: curve of first compound; second compound 0.00316 µM
property.name: IC50 (nM)
Respond numerically; units are nM and should not be typed.

(Q) # get_value(readout='IC50', item= CCC(CC)c1cc(NC2CCC(N)C2)n2nccc2n1 (stereo unspecified) + C=CC(=O)N1CCN(c2nc(OCC3CCCN3C)nc3c(F)c(-c4nc(N)cc(C)c4C(F)(F)F)c(Cl)cc23)C(C)C1 )
(A) 806

(Q) # get_value(readout='IC50', item= C[C@@H](NC(=O)c1ncnc(N)c1Cl)c1ncc(C(=O)Nc2cc(C(F)(F)F)c(Cl)cn2)s1 + C=CC(=O)N1CCN(c2nc(OCC3CCCN3C)nc3c(F)c(-c4nc(N)cc(C)c4C(F)(F)F)c(Cl)cc23)C(C)C1 )
(A) 5850

(Q) # get_value(readout='IC50', item= CCc1c2c(nc3ccc(O)cc13)-c1cc3c(c(=O)n1C2)COC(=O)[C@]3(O)CC + C=CC(=O)N1CCN(c2nc(OCC3CCCN3C)nc3c(F)c(-c4nc(N)cc(C)c4C(F)(F)F)c(Cl)cc23)C(C)C1 )
(A) 4.67

(Q) # get_value(readout='IC50', item= Nc1ccn(C2OC(CO)C(O)C2(F)F)c(=O)n1 (stereo unspecified) + C=CC(=O)N1CCN(c2nc(OCC3CCCN3C)nc3c(F)c(-c4nc(N)cc(C)c4C(F)(F)F)c(Cl)cc23)C(C)C1 )
(A) 7.89

====

The following compounds are listed with their measured viability, T/C values.
Tested on: 898857-211-R-J1-PDC complex spheroids, growth % test/control
assay.comment: Anticancer human tumor 898857-211-R-J1-PDC cell line growth inhibition [RAS];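 further: spheroids exposed to compound for seven days before readout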;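 on viability, T/C: 100% = DMSO vehicle control wells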
experimental.context: second compound 0.0949 µM; first compound 0.0316 µM; stronger effect = lower value

compound="CC(C)NCC(C(=O)N1CCN(c2ncnc3c2C(C)CC3O)CC1)c1ccc(Cl)cc1 (stereo not drawn) + CCn1c(-c2cccnc2C(C)OC)c2c3cc(ccc31)N1CCOC(CC(NC(=O)C(C(C)C)N(C)C(=O)C3(F)CCN(C(=O)C#CC(C)(C)N(C)C)CC3)C(=O)N3CCCC(N3)C(=O)OCC(C)(C)C2)C1" measured_result=92%
compound="CC1(O)CCCC1n1c(=O)c(C(F)F)cc2cnc(NC3CCN(S(C)(=O)=O)CC3)nc21 (stereo not drawn) + CCn1c(-c2cc(N3CCN(C)CC3)cnc2C(C)OC)c2c3cc(ccc31)-c1csc(n1)CC(NC(=O)C1CC1C)C(=O)N1CCCC(N1)C(=O)OCC(C)(C)C2" measured_result=96%
compound="NC1c2ccccc2OC12CCN(c1cnc3c(N4CCCc5ncccc54)n[nH]c3n1)CC2 (stereo not drawn) + CCn1c(-c2cc(N3CCN(C)CC3)cnc2C(C)OC)c2c3cc(ccc31)-c1csc(n1)CC(NC(=O)C1CC1C)C(=O)N1CCCC(N1)C(=O)OCC(C)(C)C2" measured_result=113%
compound="NC1c2ccccc2OC12CCN(c1cnc3c(N4CCCc5ncccc54)n[nH]c3n1)CC2 (stereo not drawn) + CCn1c(-c2cccnc2C(C)OC)c2c3cc(ccc31)N1CCOC(CC(NC(=O)C(C(C)C)N(C)C(=O)C3(F)CCN(C(=O)C#CC(C)(C)N(C)C)CC3)C(=O)N3CCCC(N3)C(=O)OCC(C)(C)C2)C1" measured_result=82.9%
compound="CC(C)n1nc(-c2ccc3oc(N)nc3c2)c2c(N)ncnc21 + CCn1c(-c2cccnc2C(C)OC)c2c3cc(ccc31)N1CCOC(CC(NC(=O)C(C(C)C)N(C)C(=O)C3(F)CCN(C(=O)C#CC(C)(C)N(C)C)CC3)C(=O)N3CCCC(N3)C(=O)OCC(C)(C)C2)C1" measured_result=35.5%
compound="CCC(CC)c1cc(NC2CCC(N)C2)n2nccc2n1 (stereo not drawn) + CCn1c(-c2cc(N3CCN(C)CC3)cnc2C(C)OC)c2c3cc(ccc31)-c1csc(n1)CC(NC(=O)C1CC1C)C(=O)N1CCCC(N1)C(=O)OCC(C)(C)C2" measured_result=109%

(Q) # get_value(readout='viability, T/C', item= Cc1nc(N2CCC3(CC2)COC(C)C3N)c(CO)nc1Sc1ccnc(N)c1Cl (stereo not drawn) + CCn1c(-c2cc(N3CCN(C)CC3)cnc2C(C)OC)c2c3cc(ccc31)-c1csc(n1)CC(NC(=O)C1CC1C)C(=O)N1CCCC(N1)C(=O)OCC(C)(C)C2 )
(A) 115%

(Q) # get_value(readout='viability, T/C', item= C[C@@H](NC(=O)c1ncnc(N)c1Cl)c1ncc(C(=O)Nc2cc(C(F)(F)F)c(Cl)cn2)s1 + CCn1c(-c2cc(N3CCN(C)CC3)cnc2C(C)OC)c2c3cc(ccc31)-c1csc(n1)CC(NC(=O)C1CC1C)C(=O)N1CCCC(N1)C(=O)OCC(C)(C)C2 )
(A) 121%
